Catalogue of variants with associated abundance fitness
B1: Androgen receptor, residues 557 to 632; numbered along this chain, P10275 (parent)
chain: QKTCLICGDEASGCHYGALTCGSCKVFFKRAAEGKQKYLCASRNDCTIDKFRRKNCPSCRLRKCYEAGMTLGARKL

- Variants of: B1
- assay.info: abundance fitness (aPCA) (normalised: wild type 0, dead -1); higher = more abundant; growth selection in yeast, the domain comes from the species named
- setup.conditions: Homo sapiens
Number only, please.

Consider the reported abundance fitness for these variants:
   mutation_label  observed_result
0            V26I            0.013
1            L19K           -0.015
2            N44Y           -0.274
3            A73N           -0.047
4            C56M           -0.662
5            R52C           -0.087
6            C46N           -0.711
7            C56P           -0.812

Query: Entry under review: G22S . Reported abundance fitness?
Response: -0.048

Query: What does the data say about its abundance fitness? Entry: Q36V
Response: 0.065

Query: Endpoint output: abundance fitness of L71G . Value?
Response: -0.128
